Reported pIC50 values for the following molecules.
- System: Human umbilical vein-derived vascular endothelial cells (HUVEC)
- test.protocol: Vascular endothelial cell proliferation inhibitory test (VEGF-stimulated HUVEC)
- Format: cell-based
- experimental.context: 120 h, 5 days of culture with VEGF
pIC50: −log10 of the molar value.

Example molecules with recorded pIC50:
[
  {
    "record.smiles": "Cc1cc(C(=O)Nc2ccc(Oc3ccc4nc(NC(=O)C5CC5)cn4c3)c(F)c2)c(=O)n(-c2ccc(F)cc2)c1C",
    "experimental.target": "Human umbilical vein-derived vascular endothelial cells (HUVEC)",
    "measurement.type": "pIC50",
    "experimental.value": "≥ 5.70"
  },
  {
    "record.smiles": "O=C(Nc1cn2cc(Oc3ccc(NC(=O)C4(C(=O)Nc5ccccc5)CC4)cc3F)ccc2n1)C1CC1",
    "experimental.target": "Human umbilical vein-derived vascular endothelial cells (HUVEC)",
    "measurement.type": "pIC50",
    "experimental.value": "≥ 5.70"
  },
  {
    "record.smiles": "O=C(Nc1cn2cc(Oc3ccc(NC(=O)N4CCN(c5ccc(F)cc5)C4=O)cc3F)ccc2n1)C1CC1",
    "experimental.target": "Human umbilical vein-derived vascular endothelial cells (HUVEC)",
    "measurement.type": "pIC50",
    "experimental.value": "≥ 5.70"
  },
  {
    "record.smiles": "Cc1ccc(C(=O)Nc2ccc(Oc3ccc4nc(NC(=O)C5CC5)cn4c3)cc2)c(=O)n1-c1ccc(F)cc1",
    "experimental.target": "Human umbilical vein-derived vascular endothelial cells (HUVEC)",
    "measurement.type": "pIC50",
    "experimental.value": "≥ 5.70"
  }
]

Moving on to another molecule below.
Ask: Query: pIC50; subject: `Cc1ccc(C(=O)Nc2ccc(Oc3ccc4nc(NC(=O)C5CC5)cn4c3)c(F)c2)[n+]([O-])c1-c1cccc(F)c1`
Reply: ≥ 5.70

###

- experimental.target: VEGFR2 intracellular domain protein (Homo sapiens)
- Sequence (P35968 786-1356 limits assumed): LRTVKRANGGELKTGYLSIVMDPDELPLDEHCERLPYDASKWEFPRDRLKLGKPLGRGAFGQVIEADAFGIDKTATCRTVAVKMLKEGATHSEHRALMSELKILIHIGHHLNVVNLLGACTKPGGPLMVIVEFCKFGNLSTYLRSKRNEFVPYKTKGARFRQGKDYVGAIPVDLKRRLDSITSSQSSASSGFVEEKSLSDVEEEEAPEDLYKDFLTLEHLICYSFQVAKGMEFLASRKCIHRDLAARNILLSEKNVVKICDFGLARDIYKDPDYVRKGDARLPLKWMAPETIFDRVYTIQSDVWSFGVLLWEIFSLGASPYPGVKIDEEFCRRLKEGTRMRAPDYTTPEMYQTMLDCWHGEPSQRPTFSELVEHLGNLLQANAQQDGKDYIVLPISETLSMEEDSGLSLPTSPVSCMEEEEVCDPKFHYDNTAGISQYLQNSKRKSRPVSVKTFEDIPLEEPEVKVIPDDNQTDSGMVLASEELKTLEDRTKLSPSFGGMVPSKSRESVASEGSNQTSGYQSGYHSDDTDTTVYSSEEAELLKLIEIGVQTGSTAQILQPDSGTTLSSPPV
- test.protocol: Vascular endothelial growth factor receptor 2 (VEGFR2) kinase inhibitory activity (AlphaScreen)
pIC50: −log10 of the molar value.
measurement.type: pIC50

Example compounds with recorded pIC50:
[
  {
    "record.smiles": "Cc1ccc(C(=O)Nc2ccc(Oc3ccc4nc(NC(=O)C5CC5)cn4c3)cn2)c(=O)n1-c1ccc(F)cc1",
    "pIC50": "≥ 6.00"
  },
  {
    "record.smiles": "O=C(Nc1nc2ccc(Oc3ccc(NC(=O)C4(C(=O)Nc5ccccc5)CC4)cc3F)nc2s1)C1CC1",
    "pIC50": "≥ 6.00"
  },
  {
    "record.smiles": "Cc1cc(C(=O)Nc2ccc(Oc3ccc4nc(NC(=O)C5CC5)cn4c3)c(F)c2)c(=O)n(-c2ccc(F)cc2)c1C",
    "pIC50": "≥ 6.00"
  }
]

Moving on to another compound below.
Ask: Query: pIC50; subject: `Cc1c(C(=O)Nc2ccc(Oc3ccc4nc(NC(=O)C5CC5)cn4c3)c(F)c2)c(=O)n(-c2ccc(F)cc2)n1C`
Reply: ≥ 6.00
